Values were extracted from paper PMC4362760.

- target: Syk CatDom (Homo sapiens, UniProt P43405)
pKi: −log10 of the molar value.
property name: pKi

get_value(item= CC(C)(C)c1nc2c3cc[nH]c(=O)c3c3cc(F)ccc3c2[nH]1 , readout=pKi) returns < 5.49

====

- target: PKCzeta (Homo sapiens, UniProt Q05513)
- Sequence (Q05513 1-592): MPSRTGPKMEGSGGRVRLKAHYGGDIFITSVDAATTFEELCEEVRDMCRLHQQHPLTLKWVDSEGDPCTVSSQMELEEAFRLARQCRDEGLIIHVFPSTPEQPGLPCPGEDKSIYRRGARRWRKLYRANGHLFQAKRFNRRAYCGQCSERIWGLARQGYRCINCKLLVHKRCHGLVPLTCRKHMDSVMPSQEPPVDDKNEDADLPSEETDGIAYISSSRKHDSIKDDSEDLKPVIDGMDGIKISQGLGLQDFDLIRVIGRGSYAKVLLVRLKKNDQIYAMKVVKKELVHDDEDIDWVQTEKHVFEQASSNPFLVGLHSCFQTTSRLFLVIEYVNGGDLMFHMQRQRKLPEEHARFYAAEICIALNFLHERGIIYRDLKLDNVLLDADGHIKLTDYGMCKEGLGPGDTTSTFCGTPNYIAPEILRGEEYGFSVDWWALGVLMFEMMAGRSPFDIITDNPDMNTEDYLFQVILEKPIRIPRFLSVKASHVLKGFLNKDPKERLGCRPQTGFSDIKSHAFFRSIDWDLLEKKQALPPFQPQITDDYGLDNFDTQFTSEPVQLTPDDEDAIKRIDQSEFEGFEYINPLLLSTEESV
property name: Ki

# Ki of CC(C)(C)c1nc2c3cc[nH]c(=O)c3c3cc(F)ccc3c2[nH]1 [JAKi-I, JAK inhibitor I] = > 5.24 µM

====

- target: CDK11
- procedure details: TR-FRET Kinome CDK11
- conditions: CDK11 Abbott .025(Subs Conc)
- Description: (XLS) Click here for additional data file.
property name: Ki

Looking up CC(C)(C)c1nc2c3cc[nH]c(=O)c3c3cc(F)ccc3c2[nH]1 , I see its Ki listed as > 3.24 µM

====

- target: AMPK
- procedure details: TR-FRET Kinome AMPK
- conditions: AMPK Invitrogen .1(Subs Conc)
property name: Ki (nM)
Numbers only, in nM.

// sample CC(C)(C)c1nc2c3cc[nH]c(=O)c3c3cc(F)ccc3c2[nH]1 [JAKi-I, JAK inhibitor I] , its Ki was 148

====

- target: ACVR1 (Homo sapiens)
- Sequence (Q04771 21-509): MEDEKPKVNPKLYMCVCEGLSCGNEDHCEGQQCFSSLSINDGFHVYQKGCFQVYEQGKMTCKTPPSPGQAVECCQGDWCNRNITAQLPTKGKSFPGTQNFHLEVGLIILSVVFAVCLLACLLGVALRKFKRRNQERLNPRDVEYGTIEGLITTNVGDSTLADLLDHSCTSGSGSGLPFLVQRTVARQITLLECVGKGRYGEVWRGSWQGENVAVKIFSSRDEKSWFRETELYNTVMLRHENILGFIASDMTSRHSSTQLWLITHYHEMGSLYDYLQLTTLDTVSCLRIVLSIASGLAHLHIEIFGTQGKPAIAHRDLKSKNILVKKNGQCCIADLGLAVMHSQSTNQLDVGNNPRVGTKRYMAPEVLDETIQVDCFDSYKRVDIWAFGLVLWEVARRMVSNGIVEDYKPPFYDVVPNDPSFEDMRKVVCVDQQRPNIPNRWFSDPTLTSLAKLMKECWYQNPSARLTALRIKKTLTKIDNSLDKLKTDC
property name: Ki

Looking up CC(C)(C)c1nc2c3cc[nH]c(=O)c3c3cc(F)ccc3c2[nH]1 , I see its Ki listed as > 4.32 µM

====

- target: UniProt Q13976
- Sequence (Q13976 1-671): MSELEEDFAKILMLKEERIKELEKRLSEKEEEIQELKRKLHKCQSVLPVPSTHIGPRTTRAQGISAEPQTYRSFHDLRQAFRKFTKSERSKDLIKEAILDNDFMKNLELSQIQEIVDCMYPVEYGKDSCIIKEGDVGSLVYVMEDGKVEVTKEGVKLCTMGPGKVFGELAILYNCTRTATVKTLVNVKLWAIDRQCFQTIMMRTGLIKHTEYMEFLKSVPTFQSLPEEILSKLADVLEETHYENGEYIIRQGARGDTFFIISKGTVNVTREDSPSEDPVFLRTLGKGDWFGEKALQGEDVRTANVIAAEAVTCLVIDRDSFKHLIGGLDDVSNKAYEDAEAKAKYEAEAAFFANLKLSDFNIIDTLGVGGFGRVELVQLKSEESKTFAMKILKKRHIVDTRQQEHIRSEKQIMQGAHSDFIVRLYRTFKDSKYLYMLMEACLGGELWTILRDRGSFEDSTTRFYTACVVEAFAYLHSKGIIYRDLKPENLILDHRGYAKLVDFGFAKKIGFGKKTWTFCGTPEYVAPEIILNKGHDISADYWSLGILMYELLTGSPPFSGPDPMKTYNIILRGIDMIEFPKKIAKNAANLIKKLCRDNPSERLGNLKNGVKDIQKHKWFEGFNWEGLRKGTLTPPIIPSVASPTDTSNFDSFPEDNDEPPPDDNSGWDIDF
property name: Ki

According to the records, this compound CC(C)(C)c1nc2c3cc[nH]c(=O)c3c3cc(F)ccc3c2[nH]1 displays Ki of > 3.63 µM

====

- target: cdk2 (Homo sapiens)
pKi: −log10 of the molar value.
property name: pKi

According to the records, this molecule CC(C)(C)c1nc2c3cc[nH]c(=O)c3c3cc(F)ccc3c2[nH]1 displays pKi of < 5.49

====

- target: Pim2 (Homo sapiens, UniProt Q9P1W9)
- Sequence (Q9P1W9 whole entry): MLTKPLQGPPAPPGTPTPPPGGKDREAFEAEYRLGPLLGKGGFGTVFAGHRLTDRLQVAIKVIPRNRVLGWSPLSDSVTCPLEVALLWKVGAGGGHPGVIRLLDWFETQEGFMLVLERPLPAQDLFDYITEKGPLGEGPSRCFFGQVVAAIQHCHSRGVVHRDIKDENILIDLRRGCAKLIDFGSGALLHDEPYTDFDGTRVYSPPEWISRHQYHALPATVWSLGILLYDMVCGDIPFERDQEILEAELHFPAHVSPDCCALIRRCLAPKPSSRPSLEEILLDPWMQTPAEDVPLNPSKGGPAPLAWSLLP
property name: Ki (µM)
One number for each entry, in µM.

The recorded Ki for entry CC(C)(C)c1nc2c3cc[nH]c(=O)c3c3cc(F)ccc3c2[nH]1 equals 2.11
